B1: SMTNL2 (parent)
chain: AFTMAENLANCERLIEVEDMMVMG

# Variants of: B1
# method-summary: protein stability index of a GFP-peptide fusion (GPS, HEK-293T) (PSI 1-6); higher = more stable;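 note: lentivirally expressed fusions sorted by FACS into six bins by GFP to DsRed ratio, PSI derived from sequencing read proportions per bin multiplied by bin number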
# condition: c terminus: a fixed tail appended
value-type: protein stability index
In your answer, state the number alone without any accompanying words.

Problem: Look up protein stability index: M23E
Result: 3.69

Problem: Also, R13M please.
Result: 2.56

Problem: Also, E16F please.
Result: 2.14

Problem: Also, I15H please.
Result: 3.95

Problem: Also, F2M please.
Result: 2.08

Problem: Also, L14N please.
Result: 4.2

Problem: Also, V22A please.
Result: 2.05

Problem: Also, V17C please.
Result: 1.98

Problem: Also, I15V please.
Result: 3.42

Problem: Also, T3G please.
Result: 2.91

Problem: Also, T3I please.
Result: 1.72

Problem: Also, I15N please.
Result: 3.94

Problem: Also, A5Q please.
Result: 2.05

Problem: Also, G24C please.
Result: 1.52

Problem: Also, A9F please.
Result: 1.81

Problem: Also, L8N please.
Result: 3.79

Problem: Also, V17E please.
Result: 2.97

Problem: Also, N7W please.
Result: 1.49

Problem: Also, N10L please.
Result: 1.64

Problem: Also, M20Y please.
Result: 1.72

Problem: Also, N7C please.
Result: 3.03

Problem: Also, I15E please.
Result: 4.99

Problem: Also, A1L please.
Result: 1.75

Problem: Also, L8H please.
Result: 3.85

Problem: Also, D19P please.
Result: 1.71

Problem: Also, E18W please.
Result: 1.02

Problem: Also, E12S please.
Result: 2.92

Problem: Also, V17H please.
Result: 2.35

Problem: Also, E12M please.
Result: 2.54

Problem: Also, T3C please.
Result: 1.85

Problem: Also, R13G please.
Result: 3.46

Problem: Also, M21A please.
Result: 2.37

Problem: Also, I15D please.
Result: 4.49

Problem: Also, A5F please.
Result: 2.07

Problem: Also, I15P please.
Result: 4.02

Problem: Also, T3A please.
Result: 2.06

Problem: Also, L8Y please.
Result: 3.22

Problem: Also, A5D please.
Result: 3.78

Problem: Also, F2T please.
Result: 3.88

Problem: Also, A9D please.
Result: 4.18

Problem: Also, E18I please.
Result: 1.58

Problem: Also, V17K please.
Result: 2.38

Problem: Also, G24D please.
Result: 2.33

Problem: Also, L8E please.
Result: 4.29

Problem: Also, G24R please.
Result: 2.47

Problem: Also, E12K please.
Result: 2.46

Problem: Also, M20L please.
Result: 1.9

Problem: Also, A1N please.
Result: 2.44

Problem: Also, M20C please.
Result: 2.74

Problem: Also, C11W please.
Result: 2.21

Problem: Also, D19R please.
Result: 1.39

Problem: Also, D19G please.
Result: 2.52
